Tested On: SpMyo1
Assay Summary: SPOT peptide array binding signal intensity (averaged, normalized) (arbitrary units (background-subtracted, floor 0; scale differs between SH3 domains)); higher = stronger binding of the SH3 domain to the peptide
Use t when the recorded SPOT peptide array binding signal intensity is no lower than 500; use f when it is lower.

Has `EVTPKVPERPSRRKT` a recorded SPOT peptide array binding signal intensity greater than or equal to 500?
f

Has `RRRRRPHRIERPLSN` a recorded SPOT peptide array binding signal intensity greater than or equal to 500?
f

Has `RPVPPPPPMRTTTEG` a recorded SPOT peptide array binding signal intensity greater than or equal to 500?
f

Has `VPPPMQPPPIESSNL` a recorded SPOT peptide array binding signal intensity greater than or equal to 500?
t

Has `AVPPPPPPPPLPESL` a recorded SPOT peptide array binding signal intensity greater than or equal to 500?
t

Has `ERPKRRAPPPVPKKP` a recorded SPOT peptide array binding signal intensity greater than or equal to 500?
t

Has `KLSRGRYGLPLSSRP` a recorded SPOT peptide array binding signal intensity greater than or equal to 500?
f

Has `MAMRPIPPLPTESEY` a recorded SPOT peptide array binding signal intensity greater than or equal to 500?
f

Has `VAPPPLPNRQLPNLD` a recorded SPOT peptide array binding signal intensity greater than or equal to 500?
f

Has `PSRRDSLSIPRAVDA` a recorded SPOT peptide array binding signal intensity greater than or equal to 500?
f

Has `LKRITSPPLPPRADS` a recorded SPOT peptide array binding signal intensity greater than or equal to 500?
f

Has `PPPPPPPPPPPLPQS` a recorded SPOT peptide array binding signal intensity greater than or equal to 500?
t

Has `RVRKTHVPASKRPSG` a recorded SPOT peptide array binding signal intensity greater than or equal to 500?
f

Has `MPAPPPPPPPPPGAF` a recorded SPOT peptide array binding signal intensity greater than or equal to 500?
t

Has `FPGKKSPRLPHRNKK` a recorded SPOT peptide array binding signal intensity greater than or equal to 500?
f

Has `TYNRTAFQIPGDQSI` a recorded SPOT peptide array binding signal intensity greater than or equal to 500?
f

Has `PSPSSSPPPIPKTAN` a recorded SPOT peptide array binding signal intensity greater than or equal to 500?
t

Has `FFRRSELYLPNSSKA` a recorded SPOT peptide array binding signal intensity greater than or equal to 500?
f

Has `PKRRAPPPVPKKPSS` a recorded SPOT peptide array binding signal intensity greater than or equal to 500?
t
